# ASSAY_TARGET: human Neurokinin, NK2 Receptor, TACR2 (gene 6865)
# PROCEDURE_DETAILS: NVS_GPCR_hNK2: NovaScreen (NVS) G Protein-Coupled Receptor Assay for human Neurokinin, NK2 Receptor (AID 2283278);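 further: actives reduce bound radioligand signal relative to DMSO baseline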
Records with an inconclusive call do not appear. The source made the active and inactive calls. How the source made its calls: active means hit-call score of the fitted dose curve at least 0.9, where 1 is the maximum; inconclusive means response in the unintended direction; inactive means score below 0.9.
RECORDED_ENDPOINT: outcome

smiles_code=Cc1nn(C)c(Oc2ccccc2)c1C=NOCc1ccc(C(=O)OC(C)(C)C)cc1 val=inactive
smiles_code=Oc1ccc(C(c2ccc(O)cc2)C(Cl)(Cl)Cl)cc1 val=inactive
smiles_code=N[C@@H](Cc1cc(I)c(Oc2ccc(O)c(I)c2)c(I)c1)C(=O)O val=inactive
smiles_code=CC(=O)S[C@@H]1CC2=CC(=O)CC[C@]2(C)[C@H]2CC[C@@]3(C)[C@@H](CC[C@@]34CCC(=O)O4)[C@H]12 val=inactive
